target: AFP158 homologous peptides/HLA-A*02:01 complexes; assay: SPR, crude scFv captured, complexes as analyte
ASSAY_READOUT: SPR response

Look at this binder and give its reported SPR response. AS170036 VL1VH1-VLH98Q (scFv) scFv: QSALTQPRSVSGSPGQSVTISCAGTSSDVGSENYVSWYQQHPGKAPKLMIYQVNKRASGVPDRFSGSKSGNTASLTISGLQAEDEADYYCASYRSSDQNIVFGGGTKLTVLGGGGSGGGGSGGGGSEVQLVESGGGLVQPGGSLRLSCAASGFTFSSYAMSWVRQAPGKGLEWVSTINSGTGSPYYADSVKGRFTISRDNSKNTLYLQMNSLRAEDTAVYYCAKNFFDGSWFLGPPAMDYWGQGTLVTVSSHHHHHH
< 3.5 RU

Look at this binder and give its reported SPR response. AS170036 VL1VH1-VHG108A (scFv) scFv: QSALTQPRSVSGSPGQSVTISCAGTSSDVGSENYVSWYQQHPGKAPKLMIYQVNKRASGVPDRFSGSKSGNTASLTISGLQAEDEADYYCASYRSSDHNIVFGGGTKLTVLGGGGSGGGGSGGGGSEVQLVESGGGLVQPGGSLRLSCAASGFTFSSYAMSWVRQAPGKGLEWVSTINSGTGSPYYADSVKGRFTISRDNSKNTLYLQMNSLRAEDTAVYYCAKNFFDGSWFLAPPAMDYWGQGTLVTVSSHHHHHH
< 3.5 RU
